Provenance of the data: ChEMBL document CHEMBL3616425

Test Protocol: Cytotoxicity against human BxPC3 cells assessed as cell growth at 10 uM after 72 hrs by Cell Titer 96 cell proliferation assay relative to control
Format: functional
Assay Context: BXPC-3, 72 h, read-out: Activity
Quantity: growth at 10 µM (%)

C=C(C(=O)OC)C(CO)C1CCCCC1 (stereo not given) : 86
C=C1C(=O)O[C@H](c2ccccc2)[C@@H]1c1ccccc1 (relative stereo) : 3
C=C(C(=O)OC)C(O)c1cccc(F)c1 (stereo not given) : 134
C=C(C(=O)OC)[C@@H](c1ccccc1)[C@H](O[Si](C)(C)C(C)(C)C)c1ccccc1 (relative stereo) : 117
C=C(C(=O)OCc1ccccc1)[C@@H](c1ccccc1)[C@H](O)c1ccccc1 (relative stereo) : 2
C=C(C(=O)OC)C(O)c1ccccc1 (stereo not given) : 129
C=C(C(=O)OC)C(O)c1ccc([N+](=O)[O-])cc1 (stereo not given) : 123
C=C(C(=O)OC)[C@@H](c1ccccc1)[C@H](O)Cc1ccccc1 (relative stereo) : 6
C=C(C(=O)OC)[C@@H](C)[C@@H](C)O (relative stereo) : 122
C=C(C(=O)OC)C(O)c1ccc(C#N)cc1 (stereo not given) : 126
C=C(C(=O)OC)C(CO)c1ccccc1 (stereo not given) : 60
C=C(C(=O)OC)[C@@H](c1ccccc1)[C@H](OC)c1ccccc1 (relative stereo) : 94
C=C(C(=O)O)C(O)c1ccccc1 (stereo not given) : 110
C=C(C(=O)O)C(O)c1ccc(C#N)cc1 (stereo not given) : 114
C=C(C(=O)OC)[C@@H](c1ccccc1)[C@H](O)C1CCCCC1 (relative stereo) : 23
C=C(C(=O)OC)[C@@H](c1ccccc1)[C@@H](C)O (relative stereo) : 27
C=C(C(C)=O)[C@@H](c1ccccc1)[C@H](O)c1ccccc1 (relative stereo) : 104
C=C(C(=O)OC)C(O)c1ccccc1F (stereo not given) : 137
C=C(C(=O)OC)C(O)c1c(F)c(F)c(F)c(F)c1F (stereo not given) : 117
C=C1C(=O)OC1c1ccc([N+](=O)[O-])cc1 (stereo not given) : 133
O=C1O[C@H](c2ccccc2)[C@H](c2ccccc2)/C1=C\c1ccccc1 (relative stereo) : 117
C=C(C(=O)OC)[C@@H](C)[C@H](O)c1ccccc1 (relative stereo) : 49
C=C(C(=O)OC)C(O)c1ccc(F)cc1 (stereo not given) : 137
C=C(C(=O)OCC)C(O)c1ccc(OC)cc1 (stereo not given) : 130
C=C(C(=O)OC)[C@@H](c1ccccc1)[C@H](O)CCC (relative stereo) : 8
C=C1C(=O)O[C@@H]2C3O[C@]3(C)CC/C=C(\C)CC[C@@H]12 (stereo not given in full) : 12
C=C(CC(O)c1ccccc1)C(=O)OC (stereo not given) : 1
C=C(C(=O)OC)[C@@H](c1ccccc1)[C@H](O)c1ccccc1 (relative stereo) : 2
C=C(C[C@@H](c1ccccc1)[C@H](O)c1ccccc1)C(=O)OC (relative stereo) : 129
C=C(C(=O)OC)[C@@H](C1CCCCC1)[C@@H](C)O (relative stereo) : 120
C=C(C(=O)OC)C(O)c1ccccc1C(F)(F)F (stereo not given) : 142
C=C(C(=O)Oc1ccccc1)[C@@H](c1ccccc1)[C@H](O)c1ccccc1 (relative stereo) : 1
C=C(C(=O)O)C(O)c1ccc(C(F)(F)F)cc1 (stereo not given) : 121
C=C(C(=O)OC)[C@@H](CCC)[C@H](O)c1ccccc1 (relative stereo) : 38
C=C(C(=O)O)C(O)c1ccc(OC)cc1 (stereo not given) : 110
C=C(C(=O)OC)C(O)c1ccc(C(F)(F)F)cc1 (stereo not given) : 69
C=C1C(=O)OC1c1ccc(C#N)cc1 (stereo not given) : 116
C=C(C(=O)OCC)[C@@H](c1ccccc1)[C@H](O)c1ccccc1 (relative stereo) : 3
C=C(C(=O)O)C(O)c1ccc([N+](=O)[O-])cc1 (stereo not given) : 124
C=C(C(=O)OC)C(C)CO (stereo not given) : 126
